Where do the numbers come from? From patent US3993771A.

- System: rice plants (var.: Kinki No. 33)
- measurement context: preventive test, 500 ppm
measurement name: Phytotoxicity

Would you please look over these solved cases?
O=C1OCCC1=Cc1ccccc1 [Control (ii), reference compound]; no
CC1CC(=Cc2ccccc2)C(=O)O1 (stereo not shown) [Control (ix), reference compound]; no
COc1ccccc1C=C1CCOC1=O [Control (iv), reference compound]; no
C=C1CCOC1=O [Control (i), reference compound]; no
O=C1OCCC1=Cc1ccccc1O [Control (iii), reference compound]; no
O=C1OCCC1=Cc1ccc([N+](=O)[O-])cc1 [Control (v), reference compound]; no

Let us move to another entry and its Phytotoxicity.
Just so you know, measured Phytotoxicity for O=C1OCCC1=Cc1ccc(Cl)cc1 [Control (vi), reference compound] came out at no

###

- Tested on: Pyricularia oryzae
- assay details: microbe, parasite or virus in culture
- Assay type: cell-based
- measurement context: 10 ppm, 27° C., 2 weeks; untreated 63.5 m/m
Reported Diameter of mycelium by item:
Give the quantity in m/m, number only.

Worked set:
CC1CC(=Cc2c(F)cccc2Cl)C(=O)O1 (centres unmarked); 0
COc1ccccc1C=C1CCOC1=O [Control (iv), reference compound]; 48.5
Cc1ccccc1C=C1CC(C)(C)OC1=O; 0
O=C1OCCC1=Cc1ccccc1O [Control (iii), reference compound]; 55.0

Now look at this entry.
Notebook: O=C1OCCC1=Cc1ccc([N+](=O)[O-])cc1 [Control (v), reference compound] , Diameter of mycelium read as 58.5

###

- Test system: Pyricularia oryzae
- assay details: microbe, parasite or virus in culture
- Assay type: cell-based
- measurement context: 10 ppm, 27° C., 2 weeks; untreated 63.5 m/m
Below, each entry is listed with its recorded Diameter of mycelium.
Just the number in m/m, nothing appended.

// known answers, use as guide
Cc1ccccc1C=C1CCOC1=O; 0
O=C1OCCC1=Cc1ccc(Cl)cc1 [Control (vi), reference compound]; 51.5
CCC1CC(=Cc2ccccc2Cl)C(=O)O1 (centres unmarked); 0
CC(C)(C)C1CC(=Cc2ccccc2Cl)C(=O)O1 (centres unmarked); 0

Diameter of mycelium measured on O=C1OCCC1=Cc1ccccc1 [Control (ii), reference compound] = 49.0

###

- System: Pyricularia oryzae
- Assay type: in vivo
- measurement context: preventive, concentration of active ingredient 100 ppm
Disease control by entry:
Please give a number only; it is taken to be in %.

Consider the following illustrative entries.
CC(C)(C)C1CC(=Cc2ccccc2Cl)C(=O)O1 (stereo not drawn); 99
CC1CC(=Cc2ccccc2Cl)C(=O)O1 (stereo not drawn); 100
CCc1ccccc1C=C1CC(C)OC1=O (stereo not drawn); 100

For the compound O=C1OCCC1=Cc1c(Cl)cccc1Cl , the measured Disease control on Pyricularia oryzae was 100

The recorded Disease control with Pyricularia oryzae for CC1CC(=Cc2ccccc2Br)C(=O)O1 (stereo not drawn) was 100

Sample CC1CC(=Cc2ccccc2C(C)C)C(=O)O1 (stereo not drawn) , system: Pyricularia oryzae. Its Disease control is 100

Here CC1CC(=Cc2c(F)cccc2Cl)C(=O)O1 (stereo not drawn) was tested on Pyricularia oryzae, and its Disease control came to 100

###

Overview of reported Disease control across a group of compounds:
- Tested on: Pyricularia oryzae
- Assay type: in vivo
- measurement context: preventive, concentration of active ingredient 100 ppm

Here's what some known entries look like.
CC1(C)CC(=Cc2ccccc2Cl)C(=O)O1; 99%
CC(C)OP(=O)(OC(C)C)SCc1ccccc1 [Commercial fungicide A, 0,0-diisopropyl-S-benzylphosphorothioate, reference compound]; 92%
CCC1CC(=Cc2ccccc2Cl)C(=O)O1 (centres unmarked); 99%
Cc1ccccc1C=C1CC(C)(C)OC1=O; 97%
Cc1cccc(C)c1C=C1CCOC1=O; 99%

compound Cc1ccccc1C=C1CCOC1=O , Disease control observed: 100%

The compound identified as CC1CC(=Cc2c(Cl)cccc2Cl)C(=O)O1 (centres unmarked) registered its Disease control at 100%

Documented Disease control of Cc1ccccc1C=C1CC(C)OC1=O (centres unmarked) : 99%
